Provide the reported TGI of each item.
tested on: LOX IMVI melanoma; assay: NCI tumour cell line growth inhibition, 48 h
Where a SMILES comes first, the peptide text is derived from it. The star is where a group is joined. Boc = CC(C)(C)OC(=O)*; OtBu = CC(C)(C)O*

IN: Give a short answer stating reported TGI for COc1ccc(CCN2C(=O)C(=O)C(C(=O)c3ccccc3)C2c2ccccc2)cc1OC (centres undefined) .
OUT: > 100 µM

IN: Give a short answer stating reported TGI for CC(C)CCNC(=O)c1ccc(CNC(=O)/C=C/c2ccc3c(c2)-c2ccccc2C3)cc1 .
OUT: > 100 µM

IN: Give a short answer stating reported TGI for CSC(SC)=C1Sc2cccc(Cl)c2S1 .
OUT: > 100 µM

IN: Give a short answer stating reported TGI for c1c[nH]c(CN2CCN(Cc3ncc[nH]3)CC2)n1 .
OUT: > 100 µM

IN: Give a short answer stating reported TGI for CC(C)(C)OC(=O)CC(NC(=O)OC(C)(C)C)C(=O)NC(Cc1ccccc1)C(N)=O (centres undefined) (Boc-Asp(OtBu)-Phe-NH2; configuration not given here) .
OUT: > 100 µM

IN: Give a short answer stating reported TGI for COc1cc(F)c(F)c(F)c1C(=O)c1cnc(NC2CCN(S(C)(=O)=O)CC2)nc1N .
OUT: > 13 µM

IN: Give a short answer stating reported TGI for CC(C)C1CC(CO)(CNc2nc(N)nc(Cl)c2C=O)C1 (centres undefined) .
OUT: 3.81 µM

IN: Give a short answer stating reported TGI for COc1cnc2c(c1)C(=O)c1c-2n(CCCN2CCNCC2)c(=O)c2cc(F)ccc12 .
OUT: 1.32 µM

IN: Give a short answer stating reported TGI for COc1ccc2c(c1)OCC1c3cc(OC)ccc3OC21 (centres undefined) .
OUT: > 100 µM

IN: Give a short answer stating reported TGI for COc1cc(CC2c3cc(OC)c(OC)cc3CCN2C)c(C(=O)O)cc1OC (centres undefined) .
OUT: > 100 µM

IN: Give a short answer stating reported TGI for Nc1nc(N)c2nc(CNc3ccc(C(=O)NC(CCC(=O)O)C(=O)O)cc3)cnc2n1 (centres undefined) .
OUT: > 100 µM

IN: Give a short answer stating reported TGI for O=C1Nc2ccc(I)cc2/C1=C/c1cc(Br)c(O)c(Br)c1 .
OUT: > 79 µM

IN: Give a short answer stating reported TGI for CCCCCCCCCCCCOC(=N)N1CCOCC1 .
OUT: 34.4 µM

IN: Give a short answer stating reported TGI for CC(=O)Nc1ccc(S(=O)(=O)N2C(=O)CCC2C(=O)Nc2ccccc2)cc1 (centres undefined) .
OUT: 13.2 µM

* * *

system: A549 NSCLC; experiment: NCI tumour cell line growth inhibition, 48 h; in the data active = GI50 below about 0.43 µM; inactive = the rest
A correct response names exactly one class from active, inactive

IN: Dear all, I need the recorded test outcome for Cc1cc(C)c(CNC(=O)c2cc(Cl)c3c(c2C)O[C@@](C)(C2CCC(N(C)C)CC2)O3)c(=O)[nH]1 (stereo not given in full) , thank you.
OUT: inactive

IN: Dear all, I need the recorded test outcome for N#CCC1CCN(c2nc(Nc3ccc(N4CCC(O)CC4)cc3)c3c(=O)[nH]ncc3n2)CC1 , thank you.
OUT: inactive

IN: Dear all, I need the recorded test outcome for Cc1ccc(CNc2ccc(Cl)cc2NCc2ccc(C)c(O)c2)cc1O , thank you.
OUT: inactive

IN: Dear all, I need the recorded test outcome for CC(C)CC(=O)O[C@H]1C(=O)O[C@@H]2C[C@H]3[C@H](C)C(=O)C(O[C@@H]4O[C@H](CO)[C@@H](O)[C@H](O)[C@H]4O)=C[C@]3(C)[C@H]3[C@@H](O)[C@H](O)[C@]4(C(=O)O)OC[C@]32[C@@H]14 , thank you.
OUT: inactive

IN: Dear all, I need the recorded test outcome for CC(C)OC(=O)OCOP(=O)(OCOC(=O)OC(C)C)C1CCCN(O)C1=O (stereo not given) , thank you.
OUT: inactive

IN: Dear all, I need the recorded test outcome for COc1ccc2c(c1)OCC1c3cc(OC)ccc3OC21 (stereo not given) , thank you.
OUT: inactive

IN: Dear all, I need the recorded test outcome for CNC(=S)N/N=C/CSC/C=N/NC(=S)NC , thank you.
OUT: inactive

IN: Dear all, I need the recorded test outcome for CCN(CC)CCCC(C)Nc1ccnc2cc(OC)ccc12 (stereo not given) , thank you.
OUT: inactive

IN: Dear all, I need the recorded test outcome for CC[C@@]12CC(C(=O)OC)=C3Nc4ccccc4[C@@]34CCN(C[C@H]3O[C@H]31)[C@@H]24 , thank you.
OUT: inactive

IN: Dear all, I need the recorded test outcome for COC(=O)[C@@H](C)C[C@H](Cc1ccccc1)NC(=O)c1nc([C@@H](C[C@H](C(C)C)N(C)C(=O)[C@@H](NC(=O)[C@H]2CC(=O)CCN2C)C(C)C)OC(C)=O)sc1C(C)C , thank you.
OUT: inactive

IN: Dear all, I need the recorded test outcome for Cc1n[nH]c(C)c1-c1c(C)n[nH]c1C , thank you.
OUT: inactive

IN: Dear all, I need the recorded test outcome for N#CSc1c[nH]c2cccc(/C=C/C(=O)/C=C(O)/C=C/c3cccc4[nH]cc(SC#N)c34)c12 , thank you.
OUT: active

IN: Dear all, I need the recorded test outcome for CCCN1CCCC(c2ccc(Nc3nc(Nc4cc(F)ccc4C(N)=O)c4cc[nH]c4n3)c(OC)c2)C1 (stereo not given) , thank you.
OUT: active

IN: Dear all, I need the recorded test outcome for N/C(=N\O)c1cn(C2OC(CO)C(O)C2O)c2ncnc(N)c12 (stereo not given) , thank you.
OUT: active

IN: Dear all, I need the recorded test outcome for COc1cc2nc(NC3CCC3)nc(NC3CCN(C(C)C)CC3)c2cc1OC , thank you.
OUT: inactive
